# Test system: Wolbachia pipientis
# Test protocol: Anti-Wolbachia Cell-Based Screen
# Format: functional
# Set-up: scale not given: in the data most compounds retested in dose-response had high values
# Assay setup: 5 µM
Among all 48,000 compounds or so, about 13,000 (27%) showed an effect of 50% or more. This is one part of the list.
// reported Percent Effect for each item listed
Quantity: Percent Effect

INSERT INTO measurements (molecule, experimental_value) VALUES
  ('Cc1cnccc1N1CCCN(Cc2ccc(-c3cc[nH]n3)o2)CC1', '39.38%'),
  ('Cc1cnc(C)c(N2CCN(Cc3ccc(-c4cc[nH]n4)o3)CC2)n1', '2.715%'),
  ('Cc1cc(CNC(=O)c2ccno2)c(C)o1', '94.7%'),
  ('CCOCc1nc2c(c(N(C)Cc3snnc3C)n1)CCNCC2', '2.794%'),
  ('c1ccc(-c2nc3c(c(NCCn4cccc4)n2)CCNCC3)nc1', '-2.581%'),
  ('O=c1[nH]nc2c(S(=O)(=O)N3CCOCC3)cccn12', '153.4%'),
  ('Fc1ccc(N2CCCN(Cc3ccc(-c4cc[nH]n4)o3)CC2)cc1', '76.67%'),
  ('O=C(O)c1ccc(C2CCCN(Cc3ccc(-c4cc[nH]n4)o3)C2)cc1 (stereo not drawn)', '112.5%'),
  ('COc1ccc2c(c1)C(C(=O)N(C)CCCc1cnn(C)c1)CC(=O)N2 (stereo not drawn)', '-51.57%'),
  ('CC(C)(C)OC(=O)Cn1cccc(S(=O)(=O)N2CCCCCC2)c1=O', '-1.938%'),
  ('O=C(O)c1cc(-c2cc[nH]n2)cc(S(=O)(=O)N2CCCCCC2)c1', '5.373%'),
  ('COc1ccc(CNCCC(=O)N2CCc3sccc3C2)cc1O', '-10.83%'),
  ('Cc1cc(C(=O)NCc2cc(C)oc2C)no1', '107.3%'),
  ('Cc1ccc(C)c(CN2C[C@H]3CC[C@@H]2CN(C(=O)c2cccnc2)C3)c1', '3.177%'),
  ('Cc1cnn(C2CN(CC(O)c3ccc(F)cc3)C2)c1 (stereo not drawn)', '3.544%'),
  ('O=C(CN1CCS(=O)(=O)CC1)Nc1ccc(N2CCCC2)nc1', '0.8889%'),
  ('NS(=O)(=O)c1ccc(CC(=O)N2CCCC(n3cccn3)C2)cc1 (stereo not drawn)', '-6.435%'),
  ('Cc1cc(CNC(=O)COc2ccccc2F)c(C)o1', '7.15%');
